Test: Solubility of the compound in water at pH 7.4
Assay type: physicochemical

GIVEN SMILES | solubility, µg/mL
O=C1NN=C(c2ccc(OC3CCN(C4CCC4)CC3)cc2)[C@H]2C[C@@H]12 | 800

* * *

Assay: Oral bioavailability in rat
Assay type: ADME, organism-based
Settings: in vivo
VALUE KIND: bioavailability (%)

COMPOUND | ASSAY RESULT
CN1N=C(c2ccc(OC3CCN(C4CCC4)CC3)cc2)C2CC2C1=O (racemic) | 6

* * *

Assay: Half life in human liver microsomes
Type: ADME
VALUE KIND: half-life

GIVEN SMILES | ASSAY RESULT
O=C1NN=C(c2ccc(OC3CCN(C4CCC4)CC3)cc2)[C@H]2C[C@@H]12 | > 40 min
O=C1NN=C(c2ccc(OC3CCN(C4CCC4)CC3)cc2)[C@@H]2C[C@H]12 | > 40 min
